- assayed target: Glutamate NMDA receptor; GRIN1/GRIN2B (Homo sapiens, UniProt Q05586+Q13224)
- Sequence (Q13224 whole entry, other chains not shown): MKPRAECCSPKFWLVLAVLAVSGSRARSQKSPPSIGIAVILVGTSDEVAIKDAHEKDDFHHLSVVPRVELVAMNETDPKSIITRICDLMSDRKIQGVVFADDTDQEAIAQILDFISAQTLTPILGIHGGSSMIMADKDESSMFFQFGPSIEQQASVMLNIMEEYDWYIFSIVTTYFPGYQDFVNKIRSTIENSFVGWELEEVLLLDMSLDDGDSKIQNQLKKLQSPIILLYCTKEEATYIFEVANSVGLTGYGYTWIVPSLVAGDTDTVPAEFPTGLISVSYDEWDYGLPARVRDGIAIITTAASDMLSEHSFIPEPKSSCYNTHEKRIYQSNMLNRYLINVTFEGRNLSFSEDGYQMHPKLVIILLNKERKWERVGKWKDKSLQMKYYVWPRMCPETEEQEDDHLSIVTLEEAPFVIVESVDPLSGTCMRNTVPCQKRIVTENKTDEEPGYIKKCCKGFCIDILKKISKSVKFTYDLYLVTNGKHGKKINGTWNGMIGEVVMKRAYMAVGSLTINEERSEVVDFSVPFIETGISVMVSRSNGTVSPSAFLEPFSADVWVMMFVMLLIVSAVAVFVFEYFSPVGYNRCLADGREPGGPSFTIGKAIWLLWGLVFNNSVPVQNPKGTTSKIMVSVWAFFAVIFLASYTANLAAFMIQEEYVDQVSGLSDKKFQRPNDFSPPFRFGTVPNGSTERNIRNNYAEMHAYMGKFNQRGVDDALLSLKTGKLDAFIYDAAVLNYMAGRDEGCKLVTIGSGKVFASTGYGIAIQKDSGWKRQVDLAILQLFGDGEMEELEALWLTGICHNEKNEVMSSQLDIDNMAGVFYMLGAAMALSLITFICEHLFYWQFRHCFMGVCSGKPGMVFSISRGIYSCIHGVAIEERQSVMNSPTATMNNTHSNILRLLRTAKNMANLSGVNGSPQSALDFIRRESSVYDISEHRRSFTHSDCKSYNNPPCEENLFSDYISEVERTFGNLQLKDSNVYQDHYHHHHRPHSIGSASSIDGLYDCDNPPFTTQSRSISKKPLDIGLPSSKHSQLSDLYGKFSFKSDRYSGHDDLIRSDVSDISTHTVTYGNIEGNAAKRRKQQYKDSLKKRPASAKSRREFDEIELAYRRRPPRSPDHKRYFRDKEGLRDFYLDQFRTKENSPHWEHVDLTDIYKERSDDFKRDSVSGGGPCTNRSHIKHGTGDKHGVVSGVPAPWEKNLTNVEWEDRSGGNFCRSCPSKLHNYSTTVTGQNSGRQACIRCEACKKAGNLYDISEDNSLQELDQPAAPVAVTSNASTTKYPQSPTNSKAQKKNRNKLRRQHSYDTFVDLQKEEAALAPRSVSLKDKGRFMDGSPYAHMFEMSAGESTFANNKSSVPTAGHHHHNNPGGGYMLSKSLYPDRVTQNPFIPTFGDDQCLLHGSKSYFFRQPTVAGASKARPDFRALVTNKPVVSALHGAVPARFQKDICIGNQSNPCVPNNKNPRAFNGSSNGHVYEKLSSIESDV
- protocol summary: Inhibition of N-methyl-D-aspartate glutamate receptor-evoked increase of intracellular Ca+ in cells expressing NMDA glutamate receptor 1/2B
assay readout: IC50 (nM)

These solved cases illustrate the format of a correct answer.
compound | IC50 (nM)
O=c1[nH]c2ccc([S+]([O-])CCN3CCC(Cc4ccc(F)cc4)CC3)cc2o1 (configuration not stated) | 8
O=C(c1cc2c(O)cc(O)cc2[nH]1)N1CCC(Cc2ccccc2)CC1 | 10
O=C(/C=C/c1ccc(O)cc1)N1CCC(Cc2ccccc2)CC1 | 104
O=C(c1cc2c(O)cccc2[nH]1)N1CCC(Cc2ccccc2)CC1 | 39
O=C(c1cc2ccc(O)cc2[nH]1)N1CCC(Cc2ccccc2)CC1 | 20

a. O=C(c1cc2cccc(O)c2[nH]1)N1CCC(Cc2ccccc2)CC1
b. O=C(c1cc2ccc(O)cc2[nH]1)N1CCC(OCc2ccccc2)CC1
c. O=C(c1cc2ccc(O)cc2[nH]1)N1CCC(CCc2ccccc2)CC1
Ascending sort, IC50. Present the labels in the sequence the task asks for.
c, b, a
(c: 24 nM, b: 46 nM, a: 77 nM)
